Data origin, for the record: patent US20060252807A1

molecular target: active p38 alpha enzyme (Upstate Biotechnology) (Homo sapiens, UniProt Q16539); construct: purchased Upstate Biotechnology; assay: p38α biochemical assay (ATP turnover, luminescent detection, Cambrex PKlight); conditions: p38α kinase; Table 1 Biological Activity
Sequence (Q16539 whole entry): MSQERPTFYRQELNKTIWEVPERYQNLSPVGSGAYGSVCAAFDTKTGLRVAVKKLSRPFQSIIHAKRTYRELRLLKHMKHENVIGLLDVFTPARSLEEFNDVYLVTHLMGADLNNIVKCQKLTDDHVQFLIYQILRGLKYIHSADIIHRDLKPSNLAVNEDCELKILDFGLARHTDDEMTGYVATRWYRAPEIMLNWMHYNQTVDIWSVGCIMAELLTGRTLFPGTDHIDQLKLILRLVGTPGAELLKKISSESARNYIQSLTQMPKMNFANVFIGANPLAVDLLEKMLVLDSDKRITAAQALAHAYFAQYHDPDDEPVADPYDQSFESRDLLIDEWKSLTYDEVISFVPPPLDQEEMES
quantityName: IC50

Worked examples follow.
INSERT INTO assay_data (compound, testresult) VALUES
  ('CC(C)NC(=O)c1csc(-c2c(-c3ccc(F)cc3)ncn2C2CCN(CCO)CC2)n1', '> 1000 nM'),
  ('CC(C)NC(=O)c1csc(-c2oc(CNN3CCN(C)CC3)nc2-c2ccc(F)cc2)n1', '> 1000 nM'),
  ('Cc1nc(-c2ccc(F)cc2)c(-c2nc(C(=O)NCc3ccccc3C)cs2)s1', '≤ 1000 nM'),
  ('CC(C)NC(=O)c1csc(-c2c(-c3ccc(F)cc3)noc2CN(CCC#N)Cc2cccnc2)n1', '> 1000 nM'),
  ('COCC(=O)N1CCC(c2[nH]nc(-c3ccc(F)cc3)c2-c2nc(C(=O)NC(C)C)cs2)CC1', '≤ 1000 nM'),
  ('Cc1nc(-c2ccc(F)cc2)c(-c2nc(C(=O)N3CCC(O)(O)CC3)cs2)s1', '> 1000 nM'),
  ('Cc1nc(-c2ccc(F)cc2)c(-c2nc(C(=O)N3CCC(Cc4ccccc4)CC3)cs2)s1', '> 1000 nM'),
  ('CCCN(C)Cc1onc(-c2ccc(F)cc2)c1-c1nc(C(=O)NC(C)C)cs1', '≤ 1000 nM'),
  ('COc1ccc(N2CCN(Cc3nc(-c4ccc(F)cc4)c(-c4nc(C(=O)NC(C)C)cs4)o3)CC2)cc1OC', '> 1000 nM'),
  ('CC(C)NC(=O)c1csc(-c2c(-c3ccc(F)cc3)noc2CNCc2ccc(Cl)cc2Cl)n1', '> 1000 nM');

Assay active p38 alpha enzyme (Upstate Biotechnology) (Homo sapiens, UniProt Q16539), sample CC(CC(=O)N1CCC(c2[nH]nc(-c3ccc(F)cc3)c2-c2nc(C(=O)NC(C)C)cs2)CC1)CC(C)(C)C (stereo not shown) , IC50 read: > 1000 nM

Assay active p38 alpha enzyme (Upstate Biotechnology) (Homo sapiens, UniProt Q16539), sample Cc1nc(-c2ccc(F)cc2)c(-c2nc(C(=O)Nc3ncccc3C)cs2)s1 , IC50 read: > 1000 nM

Assay active p38 alpha enzyme (Upstate Biotechnology) (Homo sapiens, UniProt Q16539), sample C#CCN(C)C(=O)c1csc(-c2sc(C)nc2-c2ccc(F)cc2)n1 , IC50 read: > 1000 nM

Assay active p38 alpha enzyme (Upstate Biotechnology) (Homo sapiens, UniProt Q16539), sample CC(C)NC(=O)c1csc(-c2oc(CNC(C)CCc3ccccc3)nc2-c2ccc(F)cc2)n1 (stereo not shown) , IC50 read: > 1000 nM

Assay active p38 alpha enzyme (Upstate Biotechnology) (Homo sapiens, UniProt Q16539), sample Cc1nc(-c2ccc(F)cc2)c(-c2nc(C(=O)N(CCO)CCO)cs2)s1 , IC50 read: > 1000 nM

Assay active p38 alpha enzyme (Upstate Biotechnology) (Homo sapiens, UniProt Q16539), sample COc1cccc(CNC(=O)c2csc(-c3sc(C)nc3-c3ccc(F)cc3)n2)c1 , IC50 read: ≤ 1000 nM
